TEST_METHOD_NOTES: Pharmacokinetic evaluation in mice
Format: in vivo
EXPERIMENTAL_SETUP: mouse, plasma, intravenous injection group 1 mg/kg, read-out: Initial concentration C0
MEASURE_NAME: C0 (ng/mL)

Answered cases to consult:
>  <COMPOUND>
Cc1cnc(-c2cccc(C(N)=O)c2)c(F)c1-n1c(C)cc(OCc2ncc(F)cc2F)c(Cl)c1=O [Compound 30-P1]

>  <QUANTITATIVE_READOUT>
2410

$$$$
>  <COMPOUND>
Cc1cnc(-c2cccc(C(=O)N(C)C)c2)c(F)c1-n1c(C)cc(OCc2ncc(F)cc2F)c(Cl)c1=O (single isomer, unassigned) [Compound 32-P1]

>  <QUANTITATIVE_READOUT>
1790

$$$$

(A) Cc1cnc(-c2cccc(C(=O)O)c2)c(F)c1-n1c(C)cc(OCc2ncc(F)cc2F)c(Cl)c1=O [Compound 29-P1]
(B) CNC(=O)c1cccc(-c2ncc(C)c(-n3c(C)cc(OCc4ncc(F)cc4F)c(Cl)c3=O)c2F)c1 [Compound 31-P1]
(C) Cc1cnc(-c2cccc(S(C)(=O)=O)c2)c(F)c1-n1c(C)cc(OCc2ncc(F)cc2F)c(Cl)c1=O [Compound 33-P1]
q: Which order do these items take when sorted by rising C0? List them. Your task in answering is to list the labels in the requested order.
a: A, B, C
(A: 1450 ng/mL, B: 2150 ng/mL, C: 3200 ng/mL)
